Entries annotated with measured growth
test system: COLO 205 colon; assay: NCI-60 one-dose screen, 48 h (100 = growth as untreated, 0 = no growth, -100 = all killed); settings: 10 µM
About 83,000 compounds went through this panel and 20% of them were active in at least one assay; those are over-represented in the sample as a whole.
Provide only the numeric value, understood in %.

compound | unit | value measured
CC(C)OC(=O)c1cc(NC(=S)OC(C)C)ccc1Cl | % | 102
Cc1cc(/C=C/c2ccc3cc(N(C)C)ccc3[n+]2C)c(C)n1-c1ccccc1 | % | -79.5
CCOC(=O)c1coc(C(=O)OCC)c1C(=O)OCC | % | 128
CSC[C@H](NC(=O)COc1cccc2cnccc12)C(=O)NC(Cc1ccccc1)C(O)C(=O)N1CSC[C@H]1C(=O)NC(C)(C)C (stereo partly drawn) | % | 106
COc1cc(-c2ccc(NC(=O)NC3CC3)c(OC)c2)ccc1NC(=O)NC1CC1 | % | 103
Cc1ccc(/C=C2\SC(=S)N(c3ccc(F)cc3)C2=O)o1 | % | 92.4

growth for `CCOC(=O)c1cc2cccc(OC)c2oc1=O` ? 123

Which growth value belongs to `CN(C)/N=C/c1ccccc1O` ? 112

====

test system: HT29 colon; test: NCI-60 one-dose screen, 48 h (100 = growth as untreated, 0 = no growth, -100 = all killed); conditions: 10 µM
This is part of a sample that, as a whole, favours compounds with a hit. Of some 83,000 tested, about 20% had one in any assay.
# maps each entry to its growth
Write the answer as a number in %, unit excluded.

molecule | value measured
C#CC(C)(O)c1ccc(Cl)cc1 (stereo unspecified) | 102
C/C(=N/NC(N)=O)c1ccco1 | 99.5
COCCOCCCl | 105
O=C(O)/C=C/c1ccc2c(c1)CCC2 | 104
CNC(=O)c1ccccc1CC1(O)c2ccccc2Oc2ccccc21 | 7.73
COc1cc(-c2ccc(NC(=O)NC3CC3)c(OC)c2)ccc1NC(=O)NC1CC1 | 48.6
C=C[Si](OC(C)=O)(OC(C)=O)OC(C)=O | 101
Cc1ccc(O)c(C(=O)c2ccccc2)c1 | 104
CCCCN(CCCC)CCCO | 126
CCOC(=O)C(=O)C=P(c1ccccc1)(c1ccccc1)c1ccccc1 | 106

Suppose we examine the molecule `S=c1[nH]ccn1-c1ccccc1Cl` ; what growth value has been reported? 104

Tell me the measured growth of CCC(C)(O)c1ccc(C)cc1 (stereo unspecified) , please. 107

I'd like to know its growth. The molecule in question is `CO[C@H]1C[C@@H]2CC[C@@H](C)[C@@](O)(O2)C(=O)C(=O)N2CCCC[C@H]2C(=O)O[C@H]([C@H](C)C[C@@H]2CC[C@@H](O)[C@H](OC)C2)CC(=O)[C@H](C)C=C(C)[C@@H](O)[C@@H](OC)C(=O)[C@H](C)C[C@H](C)/C=C/C=C/C=C1C` 45.3

Given the entry CCOC(=O)C(C#N)Cc1ccccc1 (stereo unspecified) , report its measured growth. 104

I have this molecule here, CC1CCC2C(C)(C)C3CC12CC1OC13C (stereo unspecified) , and I need its recorded growth. 107

Query (molecule): `COc1ccc(OC)c(/C=C2\CCc3ccccc3C2=O)c1` ; field requested: growth 12.8

Give the measured growth of `Cc1c(C(=O)O)c(=O)n(-c2ccccc2)n1C` . 112
